Taken from patent US20250297004A1.

Biological target: T1, human Nectin-4 (Homo sapiens, UniProt Q96NY8)
T1 sequence (Q96NY8 32-510): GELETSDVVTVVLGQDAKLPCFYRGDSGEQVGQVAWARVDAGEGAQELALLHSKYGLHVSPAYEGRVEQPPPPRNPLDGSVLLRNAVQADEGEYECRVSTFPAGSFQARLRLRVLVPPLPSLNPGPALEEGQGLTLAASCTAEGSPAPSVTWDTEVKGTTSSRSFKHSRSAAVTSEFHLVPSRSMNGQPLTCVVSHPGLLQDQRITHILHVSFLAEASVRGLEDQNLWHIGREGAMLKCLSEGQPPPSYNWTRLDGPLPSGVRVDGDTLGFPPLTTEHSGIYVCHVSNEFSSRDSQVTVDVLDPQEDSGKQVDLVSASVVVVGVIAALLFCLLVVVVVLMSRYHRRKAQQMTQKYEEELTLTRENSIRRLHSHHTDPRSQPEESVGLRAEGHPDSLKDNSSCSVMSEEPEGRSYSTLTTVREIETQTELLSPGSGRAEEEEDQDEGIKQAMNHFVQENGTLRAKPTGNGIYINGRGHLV
Experiment: Binding to human Nectin-4 by SPR
Settings: SPR; human IgG1 isotype antibodies; second set (Table 7)
TEST_READOUT: pKd
Lab note — pKd values are minus log10 of concentrations in M.

Completed entries (count: 5):
MOLECULE | OBS_VALUE
H6L2 (antibody, human IgG1, V domains shown, human IgG1 isotype) VH: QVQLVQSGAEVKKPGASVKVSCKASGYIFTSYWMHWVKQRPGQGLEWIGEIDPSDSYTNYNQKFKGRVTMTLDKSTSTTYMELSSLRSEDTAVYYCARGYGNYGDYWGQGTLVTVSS VL: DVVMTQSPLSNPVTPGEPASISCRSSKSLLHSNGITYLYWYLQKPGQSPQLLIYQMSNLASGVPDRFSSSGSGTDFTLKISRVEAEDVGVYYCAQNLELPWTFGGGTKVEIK | 7.38
H7L3 (antibody, human IgG1, V domains shown, human IgG1 isotype) VH: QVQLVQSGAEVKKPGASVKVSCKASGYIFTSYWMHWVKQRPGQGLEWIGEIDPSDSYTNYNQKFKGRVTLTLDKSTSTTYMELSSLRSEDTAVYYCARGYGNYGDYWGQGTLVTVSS VL: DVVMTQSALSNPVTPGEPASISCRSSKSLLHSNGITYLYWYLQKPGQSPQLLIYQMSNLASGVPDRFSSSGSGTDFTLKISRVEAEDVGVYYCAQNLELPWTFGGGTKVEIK | 7.31
H5L1 (antibody, human IgG1, V domains shown, human IgG1 isotype) VH: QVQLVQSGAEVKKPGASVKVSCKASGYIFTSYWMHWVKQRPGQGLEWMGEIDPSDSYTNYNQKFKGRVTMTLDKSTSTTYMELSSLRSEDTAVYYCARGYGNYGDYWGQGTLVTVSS VL: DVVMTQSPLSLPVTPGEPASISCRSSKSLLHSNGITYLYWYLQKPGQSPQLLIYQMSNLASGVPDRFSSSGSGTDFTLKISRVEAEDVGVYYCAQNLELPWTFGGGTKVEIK | 7.61
H5L2 (antibody, human IgG1, V domains shown, human IgG1 isotype) VH: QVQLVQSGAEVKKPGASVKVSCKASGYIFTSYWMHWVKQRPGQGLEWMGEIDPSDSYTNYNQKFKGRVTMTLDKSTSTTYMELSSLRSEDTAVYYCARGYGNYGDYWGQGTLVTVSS VL: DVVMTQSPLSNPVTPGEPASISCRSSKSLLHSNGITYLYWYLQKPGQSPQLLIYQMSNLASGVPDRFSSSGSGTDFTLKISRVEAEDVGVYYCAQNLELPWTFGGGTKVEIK | 7.62
5E7 (antibody, V domains shown) VH: QVQLQQPGAELVKPGASVKLSCKASGYIFTSYWMHWVKQRPGQGLEWIGEIDPSDSYTNYNQKFKGKATLTLDKSSSTTYMQLSSLTSEDSAVYYCVRGYGNYGDYWGQGTTLTVSSASTKGP VL: DVVMTQAAFSNPVTLGTSASISCRSSKSLLHSNGITYLYWYLQKPGQSPQLLIYQMSNLASGVPDRFSSSGSGTDFTLRISRVEAEDVGVYYCAQNLELPWTFGGGTKLEIKRTVAAP | 8.23

Input line: Please give the documented pKd of H8L1 (antibody, human IgG1, V domains shown, human IgG1 isotype) VH: QVQLVQSGAEVKKPGASVKVSCKASGYIFTSYWMHWVKQAPGQGLEWIGEIDPSDSYTNYNQKFKGRVTMTLDKSTSTTYMELSSLRSEDTAVYYCARGYGNYGDYWGQGTLVTVSS VL: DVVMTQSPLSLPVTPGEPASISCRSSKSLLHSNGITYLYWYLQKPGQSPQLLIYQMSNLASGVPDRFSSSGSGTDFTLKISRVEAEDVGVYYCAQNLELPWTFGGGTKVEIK
Output line: 7.72

Input line: Please give the documented pKd of H4L3 (antibody, human IgG1, V domains shown, human IgG1 isotype) VH: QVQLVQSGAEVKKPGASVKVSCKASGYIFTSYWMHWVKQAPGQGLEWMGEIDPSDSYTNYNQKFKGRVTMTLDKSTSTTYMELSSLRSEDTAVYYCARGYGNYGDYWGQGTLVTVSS VL: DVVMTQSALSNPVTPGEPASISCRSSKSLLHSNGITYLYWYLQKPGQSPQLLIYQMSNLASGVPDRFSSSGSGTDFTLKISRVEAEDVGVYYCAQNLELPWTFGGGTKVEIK
Output line: 7.67

Input line: Please give the documented pKd of H7L2 (antibody, human IgG1, V domains shown, human IgG1 isotype) VH: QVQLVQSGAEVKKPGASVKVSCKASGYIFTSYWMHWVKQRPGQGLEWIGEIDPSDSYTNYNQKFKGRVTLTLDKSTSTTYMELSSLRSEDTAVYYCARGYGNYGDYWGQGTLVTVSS VL: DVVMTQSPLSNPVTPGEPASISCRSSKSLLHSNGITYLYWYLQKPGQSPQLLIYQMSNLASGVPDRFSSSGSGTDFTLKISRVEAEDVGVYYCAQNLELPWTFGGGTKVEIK
Output line: 7.40

Input line: Please give the documented pKd of H6L3 (antibody, human IgG1, V domains shown, human IgG1 isotype) VH: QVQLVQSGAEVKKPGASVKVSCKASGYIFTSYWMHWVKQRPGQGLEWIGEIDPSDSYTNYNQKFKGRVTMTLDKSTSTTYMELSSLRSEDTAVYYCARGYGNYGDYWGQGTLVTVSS VL: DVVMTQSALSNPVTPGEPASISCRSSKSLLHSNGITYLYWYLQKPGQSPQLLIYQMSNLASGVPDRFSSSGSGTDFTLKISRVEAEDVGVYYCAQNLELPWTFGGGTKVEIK
Output line: 7.41

Input line: Please give the documented pKd of H6L1 (antibody, human IgG1, V domains shown, human IgG1 isotype) VH: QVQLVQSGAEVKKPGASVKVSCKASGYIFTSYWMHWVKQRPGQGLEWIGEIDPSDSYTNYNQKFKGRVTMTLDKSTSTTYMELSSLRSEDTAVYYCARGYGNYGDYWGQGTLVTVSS VL: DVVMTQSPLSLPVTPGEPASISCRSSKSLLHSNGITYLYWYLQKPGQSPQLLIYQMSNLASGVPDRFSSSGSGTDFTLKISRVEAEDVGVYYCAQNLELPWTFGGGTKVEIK
Output line: 7.49
